Ref: ChEMBL document CHEMBL5584243

Assay: Equilibrium solubility of compound in SGF at pH 1 using amorphous form of sample incubated for 2 to 5 days by HPLC analysis
Assay type: ADME
Conditions: time 2-5 day
readout kind: solubility thermodynamic

Example compounds with recorded solubility thermodynamic:
CCn1c(CO)nn(-c2cc3c(C(C)C)cn(-c4ccccc4C(F)(F)F)c(=O)c3cc2F)c1=O    17 µg/mL
CCn1c(CO)nn(-c2cc3c([C@@H](C)C(F)(F)F)cn(-c4ccccc4C)c(=O)c3cc2F)c1=O    < 5 µg/mL

Now look at this one.
Given the compound `CCn1c(CO)nn(-c2cc3c(C(C)C)cn(-c4c(C)cnc(OC)c4Cl)c(=O)c3cc2F)c1=O` , write its reported solubility thermodynamic. < 5 µg/mL

###

Target: PXR (NR1I2) (Homo sapiens, UniProt O75469)
Sequence (O75469 whole entry): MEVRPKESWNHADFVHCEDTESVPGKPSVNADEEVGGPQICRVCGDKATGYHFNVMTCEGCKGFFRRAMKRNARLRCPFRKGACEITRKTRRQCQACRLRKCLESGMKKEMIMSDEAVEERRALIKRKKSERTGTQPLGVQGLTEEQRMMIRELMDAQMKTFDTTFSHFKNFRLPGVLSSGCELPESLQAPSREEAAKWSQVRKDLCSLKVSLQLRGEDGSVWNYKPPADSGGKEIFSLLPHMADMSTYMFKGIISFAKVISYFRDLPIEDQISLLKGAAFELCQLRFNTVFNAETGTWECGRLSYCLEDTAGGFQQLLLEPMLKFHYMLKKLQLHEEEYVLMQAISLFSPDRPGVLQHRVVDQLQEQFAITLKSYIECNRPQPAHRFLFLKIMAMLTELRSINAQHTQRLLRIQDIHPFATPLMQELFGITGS
Assay: Activation of PXR (unknown origin) assessed as fold change at 10 uM relative to control
Format: ADME
Details: read-out: FC
readout kind: fold induction at 10 µM
# print the numeric value only

Given the compound `CCn1c(CO)nn(-c2cc3c(C(C)C)cn(-c4ccccc4C)c(=O)c3cc2F)c1=O` , write its reported fold induction at 10 µM. 7.4

###

Test: Half life in mouse hepatocyte
Format: ADME, cell-based
Conditions: hepatocytes
readout kind: half-life

Given the compound `CCn1c(CO)nn(-c2cc3c(C(C)C)cn(-c4ccccc4C)c(=O)c3cc2F)c1=O` , write its reported half-life. > 6.18 h

###

Assay: Passive permeability across apical to basolateral side in dog MDCK-MDR1 cells
Assay type: ADME, cell-based, Canis lupus familiaris
readout kind: Papp A→B (×10⁻⁶ cm/s)

Example compounds with recorded Papp A→B:
CCn1c(CO)nn(-c2cc3c(C(C)C)cn(-c4cccc(F)c4C)c(=O)c3cc2F)c1=O    23.5
CCn1c(CO)nn(-c2cc3c(C(C)C)cn(-c4ccccc4C(F)(F)F)c(=O)c3cc2F)c1=O    40.4

I: CCn1c(CO)nn(-c2cc3c(C(C)C)cn(-c4c(C)cccc4F)c(=O)c3cc2F)c1=O
II: CCn1c(CO)nn(-c2cc3c(C(C)C)cn(-c4ccccc4OC)c(=O)c3cc2F)c1=O
// returns I or II , whichever has the lower Papp A→B The response must carry the label of the picked entry. II

1: CCn1c(CO)nn(-c2cc3c(C(C)C)cn(-c4ccccc4Cl)c(=O)c3cc2F)c1=O
2: CCn1c(CO)nn(-c2cc3c([C@H](C)C(F)(F)F)cn(-c4ccccc4C)c(=O)c3cc2F)c1=O
Which record would sort first by descending Papp A→B, 1 or 2 ? The response must carry the label of the picked entry. 1

a: CCc1ccccc1-n1cc(C(C)C)c2cc(-n3nc(CO)n(CC)c3=O)c(F)cc2c1=O
b: CCn1c(CO)nn(-c2cc3c(C(C)C)cn(-c4c(F)cccc4Cl)c(=O)c3cc2F)c1=O
Which record would sort first by descending Papp A→B, a or b ? The response must carry the label of the picked entry. a
(a: 37.3 ×10⁻⁶ cm/s, b: 24.5 ×10⁻⁶ cm/s)

A: CCn1c(CO)nn(-c2cc3c(C(C)C)cn(-c4ccccc4F)c(=O)c3cc2F)c1=O
B: CCn1c(CO)nn(-c2cc3c(C(C)C)cn(-c4cc(F)ccc4C)c(=O)c3cc2F)c1=O
Which record would sort first by descending Papp A→B, A or B ? The response must carry the label of the picked entry. B
(B: 45.9 ×10⁻⁶ cm/s, A: 30.1 ×10⁻⁶ cm/s)
